Origin of measurements: patent US20220281990A1

assay target: T1, recombinant human TNFR2-hFc protein (human, UniProt P20333 23-257)
T1 construct: also called hTNFR2-Fc; human TNFR2-Fc; not shown: human Fc
T1 sequence: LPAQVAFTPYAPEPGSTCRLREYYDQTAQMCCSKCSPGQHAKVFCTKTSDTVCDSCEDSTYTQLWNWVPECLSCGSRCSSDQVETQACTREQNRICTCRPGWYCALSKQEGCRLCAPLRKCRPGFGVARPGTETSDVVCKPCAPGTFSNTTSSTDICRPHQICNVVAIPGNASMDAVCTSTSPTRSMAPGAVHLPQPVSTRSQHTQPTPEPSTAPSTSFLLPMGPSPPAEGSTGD
assay details: flow cytometry; hTNFR2-Fc binding to scFv displayed on yeast; one site binding fit (FIG. 6B)
Listed here are binders together with their documented Kd.
Write the value in nM as a bare number.

Q) Name the reported Kd value associated with the binder UC2.3.12 (S4-2 1D10-1G9-1H1) scFv (scFv) scFv: QVQLLESGGGLVQPGDSLRLSCAASGFTFSTYAMSWIRQAPGKGLEWVSIISDGGDATVYADSVKGRFTISRDNNRNTLYLQMNSLRAEDTAVYYCARDGTSAAAFDSWGQGTLVTVSSASSGGSTSGSGKPGSGEGSSGSARDIQMTQSPSSLSASVGDRVTITCQASQDITNFLNWYQQKPGKAPKLLIYDASTLQTGVPSRFSGSGSGTNFTFTISSLQPEDIATYYCQQSDSYPITFGQGTKVEIKR
A) 1.98

Q) Name the reported Kd value associated with the binder UC2.3.9 (S4-2 1D10-1G9-1F12) scFv (scFv) scFv: QVQLLESGGGLVQPGGSLRLSCAASGFTFSTYAMSWIRQAPGKGLEWVSIISDGGDATVYADSVKGRFTISRDNNRNTLYLQMNSLRAEDTAVYYCARDGTSAAAFDSWGQGTLVTVSSASSGGSTSGSGKPGSGEGSSGSARDIQMTQSPSSLSASVGDRVTITCHASQDITNFLNWYQQKPGKAPKLLIYDASTLQTGVPSRFSGSGSGTDFTFTISSLQPEDIATYYCQQSDSYPITFGQGTKVEIKR
A) 1.79

Q) Name the reported Kd value associated with the binder UC2.3.11 (S4-2 1D10-1G9-1G3) scFv (scFv) scFv: QVQLLESGGGLVQPGGSLRLSCAVSGFTFSTYAMSWIRQAPGKGLEWVSIISDGGDATVYADSVKGRFTISRDNSKNTLYLQMNSLRAEDTAVYYWARDGTSAAAFDSWGQGTLVTVSSANSGGSTSGSGKPGSGEGSSGSARDIQMTQSPSSLSASVGDRVTITCQASQDITNFLNWYQQKPGKAPKLLIYDASTLQTGVPSRFSGSGSGTDFTFTISSLQPEDIATYYCQQSDSYPITFGQGTKVEIKR
A) 1.52

Q) Name the reported Kd value associated with the binder UC2.3.3 (S4-2 1D10-1G9-1F10) scFv (scFv, also called UC2.3.3 (monomer)) scFv: QVQLLESGGGLVQPGGSLRLSCAASGFTFSTYAMSWIRQAPGKGLEWVSIISDGGDATVYADSVKGRFTISRDNNRNTLYLQMNSLRAEDTAVYYCARDGTSAAAFDSWGQGTLVTVSSASSGGSTSGSGKPGSGEGSSGSARDIQMTQSPSSLSASVGDRVTITCQASQDITNFLNWYQQKPGKAPKLLIYDASTLQTGVPSRFSGSGSGTDFTFTISSLQPEDIATYYCQQSDSYPITFGQGTKVEIKR
A) 1.35

Q) Name the reported Kd value associated with the binder UC2.3.10 (S4-2 1D10-1G9-1G2) scFv (scFv) scFv: QVQLLESGGGLVQPGGSLRLSYAASGFTFSTYAMSWIRQAPGKGLEWVSIISDGGDATVYADSVKGRFTISRDNSKNTLYLQMNSLRAEDTAVYYCARDRTSAAAFDSWGQGTLVTVSSASSGGSTSGSGKPGSGEGSSGSARDIQMTQSPSSLSASVGDRVTITCQASQDITNFLNWYQQKPGKAPKLLIYDASTLQTGVPSRFSGSGSGTDFTFTISSLQPEDIATYYCQQSDSYPITFGQGTKVEIKR
A) 0.63
